B1: TSPAN10 (parent)
chain: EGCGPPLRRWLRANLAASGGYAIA

Variants of: B1
protocol_text: protein stability index of a GFP-peptide fusion (GPS, HEK-293T) (PSI 1-6); higher = more stable;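 further: lentivirally expressed fusions sorted by FACS into six bins by GFP to DsRed ratio, PSI derived from sequencing read proportions per bin multiplied by bin number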
condition_context: c terminus: a fixed tail appended
Each entry below carries its reported protein stability index.
Provide a numeric answer; units are not to be included.

Worked cases, answers included:
R8A 1.04
P6Q 1.89
W10A 3.63
G4P 2.04
Y21N 2.61
P6Y 1.62
N14Q 1.39
G20Q 2.53
Y21D 2.61
A16N 2.5

Qu. Quick one: protein stability index for "P6G" ?
Ans. 1.86

Qu. Quick one: protein stability index for "G2E" ?
Ans. 1.97

Qu. Quick one: protein stability index for "A22V" ?
Ans. 2.8

Qu. Quick one: protein stability index for "C3K" ?
Ans. 1.93

Qu. Quick one: protein stability index for "L15N" ?
Ans. 2.28

Qu. Quick one: protein stability index for "G4M" ?
Ans. 1.83

Qu. Quick one: protein stability index for "G19L" ?
Ans. 2.17

Qu. Quick one: protein stability index for "G19E" ?
Ans. 1.84

Qu. Quick one: protein stability index for "A16M" ?
Ans. 2.98

Qu. Quick one: protein stability index for "L7Y" ?
Ans. 2

Qu. Quick one: protein stability index for "G20F" ?
Ans. 1.96

Qu. Quick one: protein stability index for "N14W" ?
Ans. 1.83

Qu. Quick one: protein stability index for "G2F" ?
Ans. 2.24

Qu. Quick one: protein stability index for "A13P" ?
Ans. 2.87

This collection of values is drawn from the supplement of paper PMC10567573.
